molecular target: MYO3B (human); test: KINOMEscan competition binding; conditions: compound 1.0 µM
Outcome measure: kinase still bound, per cent of control
Respond with the figure and its unit, in that order.

Cc1cc(NC(=O)c2cccc(NC(=O)/C=C/CN(C)C)c2)ccc1Nc1nccc(-c2cccnc2)n1 ... 89%

Kindly note the recorded kinase still bound, per cent of control for `CN(C)C/C=C/C(=O)Nc1cccc(C(=O)Nc2ccc(Nc3nccc(-c4c(-c5ccccc5)nn5ccccc45)n3)cc2)c1` , which is 97%

In plain terms, `CN(C)C/C=C/C(=O)Nc1cccc(C(=O)Nc2ccc(Nc3nccc(/C(C#N)=C4\Nc5ccccc5S4)n3)cc2)c1` has a documented kinase still bound, per cent of control of 100%

The molecule listed as `CN(C)C/C=C/C(=O)Nc1cccc(C(=O)Nc2ccc(Nc3nccc(-c4cccnc4)n3)cc2)c1` shows kinase still bound, per cent of control equal to 100%
